# tgt: AM2 S31N (serine→asparagine mutation at residue 31 in the M2 protein) (Influenza A virus, UniProt P0DOF5, S31N)
# Format: cell-based, influenza virus A/Udorn/72
observable: S31N OOcyte Inhibition at 100 uM (%)

>  <compound>
c1cn(-c2ccc(CNC34CC5CC(CC(C5)C3)C4)cc2)cn1 [Example 36a]

>  <observable>
S31N OOcyte Inhibition at 100 uM (%)

>  <result>
26.9%

$$$$
